# System: HCI09 (cells of a triple-negative luminal androgen receptor type breast cancer xenograft)
# assay_method_text: cell viability (% of vehicle); higher = less cytotoxic
# condition_parameters: 10 µM; 72 h
Structures can show the parent of a compound that is named as a salt.

compound	cell viability
CCCC1CC(C(=O)NC(C(C)Cl)C2OC(SC)C(O)C(O)C2O)N(C)C1 (stereo not given)	83
CNC(=O)c1cc(Oc2ccc(NC(=O)Nc3ccc(Cl)c(C(F)(F)F)c3)c(F)c2)ccn1.Cl [Regorafenib hydrochloride]	82.2
CCC1OC(=O)C(C)C(OC2CC(C)(OC)C(O)C(C)O2)C(C)C(OC2OC(C)CC(N(C)C)C2O)C(C)(OC)CC(C)C(=O)C(C)C(O)C1(C)O (stereo not given)	94.7
Nc1ccc(S(=O)(=O)c2ccc(N)cc2)cc1	111
Oc1c(Cl)cc(Cl)c2cccnc12	28.7
O=C1CCCC(=O)C1C(=O)c1ccc(C(F)(F)F)cc1[N+](=O)[O-]	93.2
Cc1cn(-c2cc(/N=C(\O)c3ccc(C)c(Nc4nccc(-c5cnccn5)n4)c3)cc(C(F)(F)F)c2)cn1	92.6
Clc1ccc(C(Cn2ccnc2)OCc2ccsc2Cl)c(Cl)c1 (stereo not given)	40.7
CN1CCN(c2ccc(C(=O)/N=c3\[nH][nH]c4ccc(Cc5cc(F)cc(F)c5)cc34)c(NC3CCOCC3)c2)CC1	22.8
CN1CCC(=C2c3ccccc3C=Cc3ccccc32)CC1.Cl [Cyproheptadine hydrochloride]	83.3
CN(C)CCCN1c2ccccc2Sc2ccc(Cl)cc21.Cl [Chlorpromazine HCl]	68.1
CNC(=O)C(Cc1c[nH]c2ccccc12)NC(=O)C(CC(=O)NO)CC(C)C (stereo not given)	88.9
CNCc1ccc(-c2[nH]c3cc(F)cc4c3c2CCNC4=O)cc1.O=P(O)(O)O	76
Cn1cnc2c(F)c(Nc3ccc(Br)cc3F)c(C(=O)NOCCO)cc21	65.6
CN(C)NN=C1N=CN=C1C(N)=O	110
CCc1c(Cl)c(O)c(Cl)c(O)c1C(=O)OC1C(C)OC(OCC2=CC=CCC(O)C(C)=CC(CC)C(OC3OC(C)(C)C(OC(=O)C(C)C)C(O)C3O)C(C)=CC(C)=CCC(C(C)O)OC2=O)C(OC)C1O (stereo not given)	28.6
COc1ccc(-c2ccc3cc(C(=O)O)ccc3c2)cc1C12CC3CC(CC(C3)C1)C2 [Adapalene sodium salt]	114
COc1cc(NS(=O)(=O)c2ccc(N)cc2)nc(OC)n1	103
O=C([O-])Cc1ccccc1Nc1c(Cl)cccc1Cl.[K+]	100
CC(C)CN(CC(O)C(Cc1ccccc1)NC(=O)OC1CCOC1)S(=O)(=O)c1ccc(N)cc1 (stereo not given)	85.6

###

# Test system: HCI09;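 also: PDX cells carrying CMV promoter-driven luciferase, viability read as total photon flux per second by IVIS imaging following D-luciferin, vehicle control 0.1% DMSO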
# assay_method_text: cell viability (% of vehicle); higher = less cytotoxic
# condition_parameters: 10 µM; 72 h
Property: cell viability; scope: individual molecules

molecule	target_or_system	cell viability
CCCC1CC(C(=O)NC(C(C)Cl)C2OC(SC)C(OP(=O)(O)O)C(O)C2O)N(C)C1 (centres undefined) [Clindamycin Phosphate]	HCI09	75.6
COc1nc(C)cnc1NS(=O)(=O)c1cccnc1-c1ccc(-c2nnco2)cc1 [Zibotentan (ZD4054)]	HCI09	105
CC1CC2C3CCC4=CC(=O)C=CC4(C)C3(F)C(O)CC2(C)C1(O)C(=O)CO (centres undefined) [Betamethasone]	HCI09	145
Cc1c(C(=O)Nc2ccc(N3CC(C)OC(C)C3)nc2)cccc1-c1ccc(OC(F)(F)F)cc1 (centres undefined) [LDE225 (NVP-LDE225,Erismodegib)]	HCI09	66.8
